A collection of compounds and their measured melting point
measurement_type: melting point

> print(dat)
                                   compound       measured
1  COc1cc(-c2nc3ccc(OCCN(C(C)C)C(C)C)cc3n2Cc2ccccc2C(F)(F)F)cc(OC)c1OC         184 °C
2  NC(=O)c1nnn(Cc2cc(Cl)c(S(=O)c3ccc(Cl)cc3)c(Cl)c2)c1N (centres undefined)  195 to 197 °C
3  COc1ncc(Cl)cc1C1(O)CCN(CC23CC(c4ccccc42)c2ccccc23)CC1         195 °C
4  Cc1c(S(C)(=O)=O)cc([N+](=O)[O-])c(Cl)c1[N+](=O)[O-]  174 to 175 °C
5  Cc1nn(CC(F)(F)COC(=O)CN(C)C)c(-c2ccc(F)cc2)c1-c1ccc2c(c1)NC(=O)CO2  153 to 155 °C
6  CC(C)(c1ccc(Oc2cccc3c2C(=O)NC3=O)cc1)c1ccc(Oc2cccc3c2C(=O)NC3=O)cc1  258 to 260 °C
7  CCn1ncc(C(=O)c2ccc(S(C)(=O)=O)c(-c3ccccc3C)c2C)c1O  179 to 180 °C
8  CCOC(=O)/C=C/c1cc(Br)ccc1N(C)Cc1cnn(C)c1    67 to 68 °C
9  CN(C)C(C(=O)C1CCCCC1)C1(c2ccc(Cl)c(Cl)c2)CCC1 (centres undefined)    79 to 80 °C

---

A collection of molecules and their measured melting point
measurement_type: melting point

> print(dat)
                            compound.string  measurement.type       measured
1          FC(F)(F)c1cccc(-c2ccnc3ncnn23)c1     melting point  158 to 160 °C
2       O=C1c2ccc(F)cc2C(=O)N1c1ccc(Cl)cc1F     melting point  122 to 123 °C
3  C[C@@H](c1nc(-c2ccc(C#N)cc2)cs1)[C@](O)(Cn1cncn1)c1ccc(F)cc1F     melting point  164 to 166 °C
4  COc1nc(NCCc2ccc(OC(F)F)cc2)nc(-c2ccc(Cl)c(C(C)(C)O)c2)n1     melting point         127 °C
5  CN(C)C(=O)C=Cc1c(C#N)cnn1-c1ncc(C(F)(F)F)cc1Cl     melting point  116 to 120 °C

---

A collection of compounds and their measured melting point
measurement_type: melting point

> print(dat)
                             compound.string        measured
 1  COc1cc(C)nc(NC(=O)NS(=O)(=O)c2ccccc2CCC(F)(F)F)n1   174 to 175 °C
 2              CC(=O)N1CCc2ccc(Cl)c(Cl)c2C1  99.5 to 100 °C
 3            CCn1cnc2c(Nc3ccccc3)nc(Cl)nc21          158 °C
 4          CC(C)(C)OC(=O)N1CC2CCCCC(C1)C2=O     50 to 52 °C
 5               O=C1CCCN1CCCN=c1sc2ccccc2s1   101 to 104 °C
 6     CC(C)(C)OC(=O)NC[C@H]1CC[C@H](CCO)CC1     78 to 80 °C
 7     CCOC(=O)c1cn(C)c2cc(C(F)(F)F)ccc2c1=O   222 to 224 °C
 8  Cc1cccc(-c2nc3cccnn3c2-c2ccnc(NC(=O)c3ccc(Cl)cc3)c2)c1   211 to 212 °C
 9  CNCc1nc(-c2ncn3c2[C@@H]2CCN2C(=O)c2cc(F)ccc2-3)no1   155 to 160 °C
10  C[C@@H](n1cnc2cc(C(N)=O)ccc2c1=O)[C@](O)(Cn1cncn1)c1ccc(F)cc1F   235 to 236 °C

---

measurement_type: melting point

> print(dat)
                                    molecule       measured
 1             CCOC(=O)CNC(=O)Nc1ccc(C#N)cc1  140 to 144 °C
 2  Nc1ncc(-c2cccc(-n3cnc4cc(-c5ccco5)ccc43)c2)cn1  220 to 222 °C
 3  CCCCn1c(=O)c(NC(=O)Nc2c(C(C)C)cc(CN)cc2C(C)C)c(-c2cccc(OC)c2)c2cccnc21  186 to 187 °C
 4  COc1cc(N)c(Cl)cc1C(=O)NCCN1CCC2(CC1)C(=O)NCN2c1ccccc1         247 °C
 5  COc1ccc(C(O)Cc2c(Cl)cccc2Cl)cc1OC1CCCC1 (stereo not drawn)    87 to 89 °C
 6  Cc1cc(=O)[nH]nc1-c1ccc2c(c1)CCC1(CCN(C3CCC3)CC1)O2  270 to 272 °C
 7   COc1cccc(CSc2nnc(-c3ccc4c(c3)CCO4)o2)c1    91 to 93 °C
 8  COc1ccc2c(c1OC)CCC(NC(C)=O)C2O (stereo not drawn)  184 to 186 °C
 9   Cc1ccccc1-n1ccc2c(=O)[nH]c3c(C)cccc3c21  226 to 232 °C
10                    CS(=O)(=O)NC(=O)CCCCBr    88 to 89 °C
11  O=C(O)c1cc(-c2ccccc2S(=O)(=O)NCCO)c2ccc3c(-c4ccccc4S(=O)(=O)NCCO)cc(C(=O)O)nc3c2n1       > 300 °C
12  O=C(O)CCCN(C(=O)c1cccc(C(F)(F)F)c1)c1ccccc1-c1ccccc1  156 to 157 °C
13                    CCCCCCCCCCCCC(C)(CO)CO    67 to 68 °C

---

A collection of compounds and their measured melting point
measurement_type: melting point

> print(dat)
                                   compound  measurement.type       measured
1            CCc1c(N)c(C(N)=O)nn1CCN1CCOCC1     melting point  152 to 153 °C
2  CSC1C(=O)Nc2c(Oc3ccccn3)cccc21 (stereo not given)     melting point  140 to 142 °C
3          Cc1cc(F)cc2[nH]c(=O)c(=O)[nH]c12     melting point       > 300 °C
4   CCCC=C(OC(C)=O)C(=Cc1ccc(Cl)cc1)n1cncn1     melting point  112 to 113 °C
5  CC(C)(NC(=O)Oc1ccc([N+](=O)[O-])cc1)C(F)(F)F     melting point    77 to 80 °C

---

A collection of molecules and their measured melting point
measurement_type: melting point

> print(dat)
                                    molecule  measurement.type       measured
 1  CC(C)c1cccc(C(C)C)c1NC(=O)CN1CCCN(CCCSc2nc3cccc(C(F)(F)F)c3o2)CC1     melting point    77 to 79 °C
 2  Cc1cc2c(cc1C1=NNC(=O)CC1C)N(C)C(=O)CO2 (stereo unspecified)     melting point  180 to 182 °C
 3     COC(=O)c1cccc2c(=O)c3c(I)cccc3[nH]c12     melting point  239 to 241 °C
 4  CC(C#N)(C(O)c1ccc(Cl)cc1Cl)n1cncn1 (stereo unspecified)     melting point  164 to 168 °C
 5           O=C1CN(C(=O)OCc2ccccc2)CC(=O)O1     melting point  133 to 137 °C
 6  Nc1cccc(S(=O)(=O)C(F)(F)C(F)Cl)c1 (stereo unspecified)     melting point  66 to 67.5 °C
 7             COC(=O)c1ccc2[nH]c3ccccc3c2c1     melting point  180 to 181 °C
 8  CCOCCOc1ccc(C(=O)Nc2ccc3cc(CN4CCCC4)cnc3c2C)c(F)c1     melting point         132 °C
 9  Cc1cc(C)c(C)c(COc2cccc(-c3ccoc3C(=O)NNC(=O)c3ccc(O)c(C#N)c3)c2)c1C     melting point  210 to 211 °C
10  Cc1c(C)c2c(c([N+](=O)[O-])c1C)OC(C)(C)C2     melting point  100 to 101 °C
11  Nc1nnc(C(CCc2ccccc2)NC(=O)c2ccc3[nH]c(-c4ccncc4)nc3c2)o1 (stereo unspecified)     melting point         160 °C

---

measurement_type: melting point

> print(dat)
                                    compound  measurement.type         measured
 1  CCc1nn(COC(N)=O)c(CC)c1Cc1cc(Cl)cc(Cl)c1     melting point    153 to 155 °C
 2        Cc1cc(=O)[nH]c(NC(=N)Nc2ccccc2C)n1     melting point           260 °C
 3  CCC(Cn1cncn1)(C(N)=O)c1ccc(Cl)cc1 (configuration not stated)     melting point    139 to 140 °C
 4  CCCCCCCCCCCCCC=CCC(O)C(=O)O (configuration not stated)     melting point    78 to 79.5 °C
 5  Cc1c(-c2ccccc2)sc2c(Cl)c(Cl)c(OCC(=O)O)cc12     melting point    232 to 233 °C
 6  Cc1cc(Oc2c(F)cc(C(F)(F)F)cc2Cl)nn1C(N)=O     melting point    132 to 135 °C
 7  CC(=O)N(N=Cc1c(Cl)cccc1Cl)c1nncn1N(C(C)=O)C(C)=O     melting point    140 to 150 °C
 8              CCc1nn2ccccc2c1N(CCCF)C(C)=O     melting point  76.6 to 79.6 °C
 9           Cc1cc(C)c(C)c(C(=O)Cn2ccnc2)c1C     melting point    176 to 178 °C
10            CC(=O)NCCN1CCc2ccc3c(c21)CCCO3     melting point      91 to 93 °C
11        CCn1c(=O)c(C)cc2cnc(Nc3ccccc3)nc21     melting point    178 to 180 °C
12                  CN1CCC(O)(c2ccccc2CO)CC1     melting point    118 to 119 °C
13  CCOc1nn(Cc2ccnc(OCc3cn4c(Cl)cccc4n3)c2)cc1CCC(=O)O     melting point    160 to 161 °C
14  COC(=O)C(C#N)CC(=O)c1ccc(Cl)cc1 (configuration not stated)     melting point      75 to 79 °C
15                     OCC1=CCOc2ccc(Cl)cc21     melting point      85 to 88 °C
16  C#CCS(=O)c1c(O)cc(C)oc1=O (configuration not stated)     melting point           134 °C
17  CC(=NOCCOc1ccc(CC2SC(=O)NC2=O)cc1)c1ccc(-c2ccc3c(c2)OCO3)cc1 (configuration not stated)     melting point    137 to 139 °C
